Parameter log10(Ki), tested on 92 kD gelatinase (Homo sapiens), listed per item.
Sequence (P14780 107-707): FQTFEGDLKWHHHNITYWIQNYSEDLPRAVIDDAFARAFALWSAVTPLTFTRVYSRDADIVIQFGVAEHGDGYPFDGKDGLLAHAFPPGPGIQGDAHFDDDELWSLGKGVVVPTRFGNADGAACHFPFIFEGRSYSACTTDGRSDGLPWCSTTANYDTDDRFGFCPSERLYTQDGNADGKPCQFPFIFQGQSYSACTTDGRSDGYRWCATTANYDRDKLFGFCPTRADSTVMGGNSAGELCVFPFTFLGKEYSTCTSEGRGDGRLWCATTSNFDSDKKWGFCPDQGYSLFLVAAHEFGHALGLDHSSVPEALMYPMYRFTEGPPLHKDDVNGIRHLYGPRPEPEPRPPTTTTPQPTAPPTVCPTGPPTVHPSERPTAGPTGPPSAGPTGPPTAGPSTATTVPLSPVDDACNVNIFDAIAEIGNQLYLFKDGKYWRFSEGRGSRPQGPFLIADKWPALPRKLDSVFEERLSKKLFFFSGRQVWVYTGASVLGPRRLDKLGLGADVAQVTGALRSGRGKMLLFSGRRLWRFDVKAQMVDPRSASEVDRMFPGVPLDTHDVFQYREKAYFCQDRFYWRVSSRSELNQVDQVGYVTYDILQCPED
Would you kindly interpret these values as log10 of Ki expressed in pM?

CC(C)C[C@H](NC(=O)[C@H](Cc1ccc(OCc2ccccc2)cc1)NC(=O)OCc1ccccc1)C(=O)Nc1n[nH]c(=S)s1    2.46

What value of log10(Ki) on 92 kD gelatinase (Homo sapiens) does O=C(N[C@@H](Cc1ccccc1)C(=O)Nc1n[nH]c(=S)s1)OCC1c2ccccc2-c2ccccc21 have?
2.36

Lookup: log10(Ki) / 92 kD gelatinase (Homo sapiens) / O=C(N[C@@H](Cc1ccc(OCc2ccccc2)cc1)C(=O)N[C@@H](Cc1ccccc1)C(=O)Nc1n[nH]c(=S)s1)OCc1ccccc1
2.18

Record CC(C)[C@H](NC(=O)[C@H](Cc1ccccc1)NC(=O)OCc1ccccc1)C(=O)Nc1n[nH]c(=S)s1 : what is its log10(Ki) with 92 kD gelatinase (Homo sapiens)?
3.18

Checklist item: log10(Ki) tested on 92 kD gelatinase (Homo sapiens), entry CC(C)[C@H](NC(=O)[C@H](CSCc1ccccc1)NC(=O)OCc1ccccc1)C(=O)Nc1n[nH]c(=S)s1 , value?
3.32
